Molecular target: T1, CCR4 expressed on 293/EBNA-1 cells (human, UniProt P51679 1-360)
T1 construct: whole, on cells; also called CCR4 receptor
T1 sequence (looked up): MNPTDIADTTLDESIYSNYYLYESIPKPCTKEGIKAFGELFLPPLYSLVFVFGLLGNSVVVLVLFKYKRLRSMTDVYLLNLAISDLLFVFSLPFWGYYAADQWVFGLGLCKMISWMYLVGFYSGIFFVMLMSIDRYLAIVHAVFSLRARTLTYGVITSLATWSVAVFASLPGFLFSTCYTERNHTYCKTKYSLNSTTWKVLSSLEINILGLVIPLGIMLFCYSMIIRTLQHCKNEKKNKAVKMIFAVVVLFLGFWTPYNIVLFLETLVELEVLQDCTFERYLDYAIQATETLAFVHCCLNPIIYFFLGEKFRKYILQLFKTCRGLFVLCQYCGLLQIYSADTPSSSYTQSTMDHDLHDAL
Test: displacement of 1 nM TARC-SEAP from 4x10^5 293/EBNA-1 cells expressing CCR4 by unlabeled TARC
Method: The binding experiment was conducted in 200 μl RPMI-1640 containing 20 mM HEPES (pH 7.4), 1% BSA, and 0.02% sodium azide. […] Cells were washed and dissolved in 50 μl 10 mM Tris-HCl (pH 8.0) containing 1% Triton X-100, and treated at 65° C. for 10 minutes to inactivate the phosphatase originated from the cells. After centrifugation, the AP activity in 25 μl of the supernatant was measured. The nonspecific binding was measured using 1 nM SEAP.
endpoint.label: IC50

Exercise: Tell me its IC50 given human TARC (Thymus and Activation-Regulated Chemokine), mature secreted form, expressed in and purified from insect cells (ligand, also called hTARC; unlabeled TARC) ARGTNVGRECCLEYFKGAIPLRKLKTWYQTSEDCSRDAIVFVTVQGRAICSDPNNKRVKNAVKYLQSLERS as the entry.
Solution: ~3 nM
